- System: HS 578T breast
- procedure-summary: NCI tumour cell line growth inhibition, 48 h
measured-metric: TGI

Below, 5 compounds whose answers are already recorded.
compound	assay-value
Cc1ccc(/C=C2\CN(C(=O)OC(C)(C)C)C/C(=C\c3ccc(C)cc3)C2=O)cc1	3.45 µM
O=C1OC(=O)C(c2c[nH]c3ccccc23)=C1c1c[nH]c2ccccc12	> 25 µM
O=C(c1ccccc1)C1N=NCC1c1ccc([N+](=O)[O-])cc1 (centres undefined)	> 100 µM
COc1c2c(c3c(c1CCC(=O)O)OC(C)(C)C=C3)OC(C)(C)C=C2	> 100 µM
COc1ccc(/C(=N/O)c2ccccc2-c2nc3ccccc3c(=O)n2-c2ccc(S(=O)(=O)Nc3ncccn3)cc2)cc1C	> 100 µM

Summary for this compound, COc1c(CCC[P+](c2ccccc2)(c2ccccc2)c2ccccc2)cc2c(c1OC)OCO2 : TGI is 13.4 µM

Summary for this compound, COc1ccc(C(=O)/C=C/c2ccc(/C=C/c3cc(OC)c(OC)c(OC)c3)cc2)cc1 : TGI is > 100 µM

Summary for this compound, CCN(CC)CCn1ccc(=O)c2cc3c(=O)ccn(CCN(CC)CC)c3c(C)c21 : TGI is 17.5 µM

Summary for this compound, CC(C)(C)C[C@H]1NC(C(=O)NCC[C@H](O)CO)[C@H](c2cccc(Cl)c2)[C@@]12C(=O)Nc1cc(Cl)c(F)cc12 (some centres undefined) : TGI is 60.4 µM

###

- Test system: HCT-15 colon
- procedure-summary: NCI tumour cell line growth inhibition, 48 h; in the data active = GI50 below about 0.43 µM; inactive = the rest
# valid calls are 1 (yes) (active), 0 (no) (inactive); nothing else

Answered examples (2):
compound	answer-label
O=C1c2ccccc2-c2c1c1ccccc1c(=O)n2CCCNCCCNCCCn1c2c(c3ccccc3c1=O)C(=O)c1ccccc1-2	1 (yes)
C[C@H](Nc1ncnc2nc[nH]c12)c1cc2cccc(Cl)c2c(=O)n1-c1ccccc1	0 (no)

(Q) Hi, sorry to bother you, what did the test record for O=CNc1c(Cl)cc2c(c1Cl)Cc1cc([N+](=O)[O-])ccc1-2 ?
(A) 0 (no)

(Q) Hi, sorry to bother you, what did the test record for N#Cc1cnc2cc(OC[C@H](O)CO)c(NC(=O)CC3CSSC3)cc2c1Nc1ccc(OCc2cccc(F)c2)c(Cl)c1 ?
(A) 0 (no)

###

- System: OVCAR-8 ovarian
- procedure-summary: NCI tumour cell line growth inhibition, 48 h
Recorded TGI for the following compounds

compound	test-system	TGI
C=C1[C@@H](O)C[C@@]23CC[C@@H]4[C@@]5(C)CC[C@@H](OC(C)=O)C(C)(C)[C@@H]5C[C@@H](OC5OC(COC(C)=O)C(O)C(O)C5O)[C@@]4(C)C2=CC[C@H]3[C@H]1C (some centres not stated)	OVCAR-8 ovarian	21.8 µM
N#C/C(=C1\OC(=O)C(c2ccc(Br)cc2)=C1O)c1ccc(Br)cc1	OVCAR-8 ovarian	24.6 µM
CCCCCCCCCC[C@H](O)[C@H]1CC[C@H]([C@H]2CC[C@H]([C@H](O)CC[C@H](O)CCCCCCC[C@@H](O)CC3=C[C@H](C)OC3=O)O2)O1	OVCAR-8 ovarian	> 100 µM
CCCC[C@H](NC(=O)[C@H]1CCCN1C)C(=O)N(C)[C@H](C[C@@H](OC(C)=O)c1nc(C(=O)N[C@@H](Cc2ccccc2)C[C@H](C)C(=O)OCC)cs1)C(C)C	OVCAR-8 ovarian	> 33.3 µM
CC1(C)C(c2ccccc2)=[N+]([O-])C(C)(C)N1O	OVCAR-8 ovarian	> 10 µM

Summary for this compound, CNC(=O)OCc1nc(SC2CCCCO2)n(C)c1COC(=O)NC (configuration not stated) : TGI is > 100 µM

Summary for this compound, COC(=O)[C@@H](C)C[C@H](Cc1ccccc1)NC(=O)c1nc([C@@H](C[C@H](C(C)C)N(C)C(=O)[C@@H](NC(=O)[C@H]2CCCCN2C)C(C)C)OC(C)=O)sc1C : TGI is > 16.7 µM

Summary for this compound, COc1ccc(-c2ccc(/C=N/n3c(COc4ccc(Cl)cc4Cl)n[nH]c3=S)o2)c([N+](=O)[O-])c1 : TGI is > 100 µM

###

- System: SK-MEL-28 melanoma
- procedure-summary: NCI tumour cell line growth inhibition, 48 h
Recorded TGI for the following compounds

Below, 4 compounds whose answers are already recorded.
compound	TGI
Oc1ccc(-c2nnc3sc(-c4ccc(F)cc4)nn23)cc1	> 100 µM
COc1ccc2c(c1)O/C(=C\c1cccc(OCC(=O)Nc3nc4c(s3)CCCC4)c1)C2=O	> 100 µM
CN(C)c1nc(=NCc2ccncc2)ss1	> 93.9 µM
CN(C)NC(=S)Nc1ccccc1Br	> 100 µM

Summary for this compound, CCCCOc1ccc(NC(N)=Nc2ccc(Cl)cc2)cc1 : TGI is 26.7 µM

Summary for this compound, O=C(Nc1cccc2cnccc12)c1cc2c(cc1Cl)Sc1nccn1S2(=O)=O : TGI is 53.1 µM

Summary for this compound, C/C(=N/NC(N)=S)c1ccc2ccccc2c1 : TGI is > 100 µM

Summary for this compound, COc1cc(C2c3cc4c(cc3OC(N3CCCC3)C2C)OCO4)cc(OC)c1OC (stereo unspecified) : TGI is > 100 µM

Summary for this compound, CCSC1=CC(=O)c2nc3ccccc3c3ccnc1c23 : TGI is 25.3 µM

Summary for this compound, CC(=O)NNc1nc(C)c(C(=O)NNC(=O)C(=O)Nc2ccccc2C#N)s1 : TGI is > 100 µM

Summary for this compound, CCCCCCCCCc1cc(=O)c2ccc(OCc3ccccc3)cc2o1 : TGI is > 100 µM

###

- System: IGROV1 ovarian
- procedure-summary: NCI tumour cell line growth inhibition, 48 h; in the data active = GI50 below about 0.43 µM; inactive = the rest
# valid calls are T = active, F = inactive; nothing else

compound	answer-label
C[C@@H](C(=O)Nc1ccc(Cl)cc1)C1CCC(c2ccnc3ccc(F)cc23)CC1 (stereo partly drawn)	F
COC(=O)[C@]12CC[C@@H](C)[C@H](C)[C@@H]1C1=CC[C@@H]3[C@@]4(C)C[C@@H](OC(C)=O)[C@H](O)[C@@](C)(COC(C)=O)[C@@H]4[C@H](O)C[C@@]3(C)[C@]1(C)CC2	F

Now for another entry.
(Q) Hi, sorry to bother you, what did the test record for COC(=O)[C@@H](C)C[C@H](Cc1ccccc1)NC(=O)c1nc([C@@H](C[C@H](C(C)C)N(C)C(=O)[C@@H](NC(=O)[C@H]2CCCCN2C)C(C)C)OC(C)=O)sc1C ?
(A) T

###

- Tested on: CCRF-CEM leukemia
- procedure-summary: NCI tumour cell line growth inhibition, 48 h
Recorded TGI for the following compounds
Just the number in µM, nothing appended.

smiles-notation	measured-metric	assay-value
CN(C)c1nc(=NCc2ccncc2)ss1	TGI	49.6

Proceeding to the next compound to report its TGI.
Summary for this compound, C=C1C(=O)O[C@H]2[C@H]1CC/C(COC(=O)NCc1ccccc1OC)=C\CC[C@@]1(C)O[C@@H]21 : TGI is 4.7

###

- Test system: XF 498 CNS
- procedure-summary: NCI tumour cell line growth inhibition, 48 h
measured-metric: TGI

Below, 3 compounds whose answers are already recorded.
compound	TGI
CC(C)C(=O)Nc1nc2nc[nH]c2c(=O)[nH]1	> 100 µM
COc1ccc(-c2cc(=O)c3cc4c(cc3[nH]2)OCO4)c(OC)c1OC	> 100 µM
O=c1c2c([nH]c3cc4c(cc13)OCO4)-c1ccccc1CC2	> 100 µM

Summary for this compound, COc1nc(NC2OCC(OC(C)=O)C(OC(C)=O)C2OC(C)=O)c(N=CC=Nc2c(NC3OCC(OC(C)=O)C(OC(C)=O)C3OC(C)=O)nc(OC)n(C)c2=O)c(=O)n1C (stereo not given) : TGI is 95.9 µM

Summary for this compound, CN(C(=O)C12C3C4C5C3C1(C(=O)O)C5C42)C(C)(C)C (stereo not given) : TGI is > 100 µM

###

- System: MDA-MB-435
# valid calls are TRUE for active, FALSE for inactive; nothing else

Answered examples (2):
molecule	answer-label
CCCCCCCCCC[C@H](O)[C@H]1CC[C@H]([C@H]2CC[C@H]([C@H](O)CC[C@H](O)CCCCCCC[C@@H](O)CC3=C[C@H](C)OC3=O)O2)O1	FALSE
CN(C)S(=O)(=O)c1ccc(NC(=O)COC(=O)c2ccc(S(=O)(=O)N3CCCCC3)cc2)cc1	FALSE

Now for another entry.
(Q) Hi, sorry to bother you, what did the test record for COc1cccc(/C=C/C(=O)c2cccc(Nc3nc(Nc4ccccc4)nc(Nc4ccccc4)n3)c2)c1 ?
(A) FALSE

###

- Test system: EKVX NSCLC
- procedure-summary: NCI tumour cell line growth inhibition, 48 h
Recorded TGI for the following compounds
Just the number in µM, nothing appended.

compound	test-system	assay-value
COc1ccc2c(c1)C(O)(C(F)(F)F)c1cc(C(=O)C(F)(F)F)c3ccccc3c1N2 (stereo not given)	EKVX NSCLC	34.1

Summary for this compound, CC(=O)OC(C)c1cc2c(s1)C(=O)c1sccc1C2=O (stereo not given) : TGI is 3.7
